These measurements were taken from patent US20240066131A1.

The entries below are paired with their reported FPN IC50.
TGT: T1, human ferroportin (SLC40A1) fused in frame with GFP, stably expressed in HEK293 cells (human, UniProt Q9NP59 1-571)
T1 sequence (looked up): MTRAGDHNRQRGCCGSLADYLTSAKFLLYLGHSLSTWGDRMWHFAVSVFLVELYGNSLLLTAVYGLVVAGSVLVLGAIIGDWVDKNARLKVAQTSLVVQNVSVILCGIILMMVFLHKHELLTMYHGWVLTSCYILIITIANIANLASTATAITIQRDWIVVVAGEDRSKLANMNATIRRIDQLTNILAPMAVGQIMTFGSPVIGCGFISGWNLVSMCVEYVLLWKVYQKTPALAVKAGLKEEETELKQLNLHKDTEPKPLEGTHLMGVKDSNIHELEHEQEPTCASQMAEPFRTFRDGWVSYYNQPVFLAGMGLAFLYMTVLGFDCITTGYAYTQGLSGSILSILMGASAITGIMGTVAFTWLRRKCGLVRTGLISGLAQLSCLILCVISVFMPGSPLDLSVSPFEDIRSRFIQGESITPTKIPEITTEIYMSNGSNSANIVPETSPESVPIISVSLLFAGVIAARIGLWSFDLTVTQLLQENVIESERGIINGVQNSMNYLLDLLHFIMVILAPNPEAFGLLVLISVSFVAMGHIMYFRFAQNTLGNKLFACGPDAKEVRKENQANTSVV
EXPERIMENT NOTES: cell-based or functional assay
Starred links: 1 amine or outer side, 2 acyl side, 3 side chain; linkers in the order of their positions; H or OH if unused. Non-standard residues stand in square brackets, D forms with d. Groups on a side chain read outwards from the residue. *: point of attachment. C18 diacid = O=C(O)CCCCCCCCCCCCCCCCC(=O)*; Dip = N[C@H](C(=O)O)C(c1ccccc1)c1ccccc1; γGlu = O=C(O)[C@H](CCC(=O)[*:2])N[*:1]; β3hF = N[C@H](CC(=O)O)Cc1ccccc1; Isovaleryl = CC(C)CC(=O)*; AEEA = NCCOCCOCC(=O)O
Numbers only; they are read as nM.

[
  {
    "BINDER": "Isovaleryl-LTH[Dip]P[dK]([AEEA-AEEA-γGlu-C18 diacid])[β3hF]-NH2 (SMILES CC(C)CC(=O)N[C@@H](CC(C)C)C(=O)N[C@H](C(=O)N[C@@H](Cc1c[nH]cn1)C(=O)N[C@H](C(=O)N1CCC[C@H]1C(=O)N[C@H](CCCCNC(=O)COCCOCCNC(=O)COCCOCCNC(=O)CC[C@H](NC(=O)CCCCCCCCCCCCCCCCC(=O)O)C(=O)O)C(=O)N[C@H](CC(N)=O)Cc1ccccc1)C(c1ccccc1)c1ccccc1)[C@@H](C)O) [Isovaleric Acid-L-T-H-[Dpa]-P-d[Lys(1PEG2_1PEG2_IsoGlu_C18_Diacid)]-[bhPhe]-NH2]",
    "FPN IC50 (nM)": 394
  }
]

Please examine the following record next.
[Q] Which value of FPN IC50 has been reported for Isovaleryl-ETHFPAIK([γGlu-C10 acid])FEPRSKGAK-NH2 [Isovaleric Acid-E-T-H-F-P-A-I-[Lys(IsoGlu_C10_acid)]-F-E-P-R-S-K-G-A-K-NH2] in the records?
[A] 3310
